Values compiled from PubChem BioAssay AID2060509.

- System: 485176-168-R4-J1-PDC spheroids with HUVEC/MSC, viability
- method_description: Anticancer human tumor 485176-168-R4-J1-PDC patient-derived pancreatic adenocarcinoma cell line growth inhibition [GQUAD]
- experimental_conditions: second compound 0.1 µM; first compound 10 µM; active compounds read low
assay_metric: viability, T/C

Observe how each entry below is paired with its result.
- molecule: "CC(C)n1c(=O)n(C)c2cnc3cc(F)c(-c4ccc(OCCCN5CCCCC5)nc4)cc3c21 + CN(C)c1ccc(Nc2c3ccc(NC(=O)CCN4CCCC4)cc3nc3cc(NC(=O)CCN4CCCC4)ccc23)cc1"
  result: "68.4%"
- molecule: "COc1ccc([C@@H](O)c2cc(-c3ncnc4cc(N5CCOCC5)ccc34)c(F)cc2Cl)nn1 + Cc1[nH]c2ccc(F)cc2c1-c1nc2c3cccnc3c3ncccc3c2[nH]1"
  result: "27.7%"
- molecule: "O=c1[nH]cc(F)c(=O)[nH]1 + CN(C)c1ccc(Nc2c3ccc(NC(=O)CCN4CCCC4)cc3nc3cc(NC(=O)CCN4CCCC4)ccc23)cc1"
  result: "51%"
- molecule: "O=C(NO)c1cnc(N2CCN(S(=O)(=O)c3ccc4ccccc4c3)CC2)nc1 + CN(C)c1ccc(Nc2c3ccc(NC(=O)CCN4CCCC4)cc3nc3cc(NC(=O)CCN4CCCC4)ccc23)cc1"
  result: "0.2%"
- molecule: "COc1cc(C2c3cc4c(cc3C(OC3OC5COC(C)OC5C(O)C3O)C3COC(=O)C23)OCO4)cc(OC)c1O (stereo unspecified) + Cc1[nH]c2ccc(F)cc2c1-c1nc2c3cccnc3c3ncccc3c2[nH]1"
  result: "12.5%"

Each of the following entries comes with a recorded value; kindly state viability, T/C for each.
1. C=CC(=O)N1CCN(c2nc(=O)n(-c3c(C)ccnc3C(C)C)c3nc(-c4c(O)cccc4F)c(F)cc23)C(C)C1 (stereo unspecified) + Cc1[nH]c2ccc(F)cc2c1-c1nc2c3cccnc3c3ncccc3c2[nH]1
2. CC(C)(O)C1CCC(Nc2ccc3ncc(-c4cccc(C(F)(F)F)c4)n3n2)CC1 (stereo unspecified) + Cc1cnc(CNC(=O)c2c(=O)c3ccc(N4CCCN(C)CC4)nc3n3c2sc2ccccc23)cn1
3. COc1ccc([C@@H](O)c2cc(-c3ncnc4cc(N5CCOCC5)ccc34)c(F)cc2Cl)nn1 + CN(C)c1ccc(Nc2c3ccc(NC(=O)CCN4CCCC4)cc3nc3cc(NC(=O)CCN4CCCC4)ccc23)cc1

102%
44.8%
30.7%

* * *

- Test system: 485176-168-R4-J1-PDC spheroids with HUVEC/MSC, viability
- method_description: Anticancer human tumor 485176-168-R4-J1-PDC cell line growth inhibition [GQUAD];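 further: spheroids exposed to compounds for seven days before readout; percent viability relative to DMSO vehicle control wells as 100%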
- experimental_conditions: second compound 0.316 µM; first compound 1 µM; active compounds read low
What viability, T/C was measured for each of the following?
Numbers only, in %.

Observe how each entry below is paired with its result.
- molecule: "COc1cccc2c1C(=O)c1c(O)c3c(c(O)c1C2=O)CC(O)(C(=O)CO)CC3OC1CC(N)C(O)C(C)O1 (stereo not drawn) + Cc1cnc(CNC(=O)c2c(=O)c3ccc(N4CCCN(C)CC4)nc3n3c2sc2ccccc23)cn1"
  target_under_test: "485176-168-R4-J1-PDC spheroids with HUVEC/MSC, viability"
  viability, T/C / %: 18.6
- molecule: "Nc1ccn(C2OC(CO)C(O)C2(F)F)c(=O)n1 (stereo not drawn) + Cc1[nH]c2ccc(F)cc2c1-c1nc2c3cccnc3c3ncccc3c2[nH]1"
  target_under_test: "485176-168-R4-J1-PDC spheroids with HUVEC/MSC, viability"
  viability, T/C / %: 10.1

So the reported viability, T/C for CCCS(=O)(=O)Nc1ccc(F)c(C(=O)c2c[nH]c3ncc(-c4ccc(Cl)cc4)cc23)c1F + Cc1cnc(CNC(=O)c2c(=O)c3ccc(N4CCCN(C)CC4)nc3n3c2sc2ccccc23)cn1 , on 485176-168-R4-J1-PDC spheroids with HUVEC/MSC, viability, turned out to be 56.4

* * *

- Test system: 485176-168-R4-J1-PDC spheroids with HUVEC/MSC, viability
- method_description: Anticancer human tumor 485176-168-R4-J1-PDC cell line growth inhibition [GQUAD];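 further: spheroids exposed to compounds for seven days before readout; percent viability relative to DMSO vehicle control wells as 100%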
- experimental_conditions: second compound 10 µM; first compound 0.00999 µM; active compounds read low
Category key, based on recorded viability, T/C: I (below 40%), II (40% to below 80%), III (80% or more)

Example cases with answers are listed next.
- molecule: "Cc1[nH]c2ccccc2c1CCNCc1ccc(/C=C/C(=O)NO)cc1 + CN(C)c1ccc(Nc2c3ccc(NC(=O)CCN4CCCC4)cc3nc3cc(NC(=O)CCN4CCCC4)ccc23)cc1"
  target_under_test: "485176-168-R4-J1-PDC spheroids with HUVEC/MSC, viability"
  discrete_label: "II"
- molecule: "CCc1c2c(nc3ccc(O)cc13)-c1cc3c(c(=O)n1C2)COC(=O)[C@]3(O)CC + Cc1[nH]c2ccc(F)cc2c1-c1nc2c3cccnc3c3ncccc3c2[nH]1"
  target_under_test: "485176-168-R4-J1-PDC spheroids with HUVEC/MSC, viability"
  discrete_label: "I"
- molecule: "CC[C@@]1(O)C(=O)OCc2c1cc1n(c2=O)Cc2cc3c(CN(C)C)c(O)ccc3nc2-1 + CN(C)c1ccc(Nc2c3ccc(NC(=O)CCN4CCCC4)cc3nc3cc(NC(=O)CCN4CCCC4)ccc23)cc1"
  target_under_test: "485176-168-R4-J1-PDC spheroids with HUVEC/MSC, viability"
  discrete_label: "III"
- molecule: "CC[C@@]1(O)C(=O)OCc2c1cc1n(c2=O)Cc2cc3c(CN(C)C)c(O)ccc3nc2-1 + Cc1cnc(CNC(=O)c2c(=O)c3ccc(N4CCCN(C)CC4)nc3n3c2sc2ccccc23)cn1"
  target_under_test: "485176-168-R4-J1-PDC spheroids with HUVEC/MSC, viability"
  discrete_label: "II"
- molecule: "Cc1[nH]c2ccccc2c1CCNCc1ccc(/C=C/C(=O)NO)cc1 + Cc1[nH]c2ccc(F)cc2c1-c1nc2c3cccnc3c3ncccc3c2[nH]1"
  target_under_test: "485176-168-R4-J1-PDC spheroids with HUVEC/MSC, viability"
  discrete_label: "III"
- molecule: "Cn1ncnc1[C@H]1c2n[nH]c(=O)c3cc(F)cc(c23)N[C@@H]1c1ccc(F)cc1 + Cc1[nH]c2ccc(F)cc2c1-c1nc2c3cccnc3c3ncccc3c2[nH]1"
  target_under_test: "485176-168-R4-J1-PDC spheroids with HUVEC/MSC, viability"
  discrete_label: "III"
- molecule: "CC[C@@]1(O)C(=O)OCc2c1cc1n(c2=O)Cc2cc3c(CN(C)C)c(O)ccc3nc2-1 + Cc1[nH]c2ccc(F)cc2c1-c1nc2c3cccnc3c3ncccc3c2[nH]1"
  target_under_test: "485176-168-R4-J1-PDC spheroids with HUVEC/MSC, viability"
  discrete_label: "II"
- molecule: "Cc1[nH]c2ccccc2c1CCNCc1ccc(/C=C/C(=O)NO)cc1 + Cc1cnc(CNC(=O)c2c(=O)c3ccc(N4CCCN(C)CC4)nc3n3c2sc2ccccc23)cn1"
  target_under_test: "485176-168-R4-J1-PDC spheroids with HUVEC/MSC, viability"
  discrete_label: "I"

// return the class label for CCc1c2c(nc3ccc(O)cc13)-c1cc3c(c(=O)n1C2)COC(=O)[C@]3(O)CC + CN(C)c1ccc(Nc2c3ccc(NC(=O)CCN4CCCC4)cc3nc3cc(NC(=O)CCN4CCCC4)ccc23)cc1 II

// return the class label for CCc1c2c(nc3ccc(O)cc13)-c1cc3c(c(=O)n1C2)COC(=O)[C@]3(O)CC + Cc1cnc(CNC(=O)c2c(=O)c3ccc(N4CCCN(C)CC4)nc3n3c2sc2ccccc23)cn1 I

* * *

- Test system: 485176-168-R4-J1-PDC spheroids with HUVEC/MSC, viability
- method_description: Anticancer human tumor 485176-168-R4-J1-PDC cell line growth inhibition [GQUAD];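 further: spheroids exposed to compounds for seven days before readout; percent viability relative to DMSO vehicle control wells as 100%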
- experimental_conditions: second compound 0.1 µM; first compound 0.316 µM; active compounds read low
assay_metric: viability, T/C (%)
Answers are plain numbers, in %.

- molecule: "CC(=O)O[C@H]1C(=O)[C@@]2(C)[C@H]([C@H](OC(=O)c3ccccc3)[C@]3(O)C[C@H](OC(=O)[C@H](O)[C@@H](NC(=O)c4ccccc4)c4ccccc4)C(C)=C1C3(C)C)[C@]1(OC(C)=O)CO[C@@H]1C[C@@H]2O + Cc1cnc(CNC(=O)c2c(=O)c3ccc(N4CCCN(C)CC4)nc3n3c2sc2ccccc23)cn1"
  target_under_test: "485176-168-R4-J1-PDC spheroids with HUVEC/MSC, viability"
  quantitative_result: 12

Each of the following entries comes with a recorded value; kindly state viability, T/C for each.
1. COc1ncnc(C2CC2)c1-c1ncc2cnn(Cc3ccc(-c4nc(C(F)(F)F)cn4C(C)C)cc3)c2n1 + CN(C)c1ccc(Nc2c3ccc(NC(=O)CCN4CCCC4)cc3nc3cc(NC(=O)CCN4CCCC4)ccc23)cc1
2. CC(C)n1c(=O)n(C)c2cnc3cc(F)c(-c4ccc(OCCCN5CCCCC5)nc4)cc3c21 + Cc1cnc(CNC(=O)c2c(=O)c3ccc(N4CCCN(C)CC4)nc3n3c2sc2ccccc23)cn1

[106, 35.6]
